- PROCEDURE_DETAILS: NCI Yeast Anticancer Drug Screen. Data for the rad50 strain (AID 155);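 note: 0% = growth of vehicle-only cultures of the same strain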
- EXPERIMENTAL_PARAMETERS: S. cerevisiae rad50 strain growth inhibition; at 50.0 µM; stronger effect = higher value
Compounds without any hit were thinned out: in the full panel of roughly 79,000, 15% have a hit.

- MOLECULE: "CCSCCCCSCC"
  UNIT_STRING: "%"
  growth inhibition: -2.85
- MOLECULE: "CCOC(=O)Cn1cnc2sc3c(c2c1=O)CCCC3"
  UNIT_STRING: "%"
  growth inhibition: 13.4
- MOLECULE: "COc1ccccc1C(=O)O"
  UNIT_STRING: "%"
  growth inhibition: -7.45
- MOLECULE: "[N-]=[N+]=Nc1c(Cc2ccccc2)c(Cl)nc2ccccc12"
  UNIT_STRING: "%"
  growth inhibition: 40.5
- MOLECULE: "CCOC(=O)CC1(CC(=O)OCC)OCCO1"
  UNIT_STRING: "%"
  growth inhibition: -6.2
- MOLECULE: "O=C(NNC(=S)Nc1ccc(S(=O)(=O)N2CCCCC2)cc1)c1ccncc1"
  UNIT_STRING: "%"
  growth inhibition: 5.25
- MOLECULE: "Cn1cnc([N+](=O)[O-])c1Sc1nc2ccccc2[nH]1"
  UNIT_STRING: "%"
  growth inhibition: -16.4
- MOLECULE: "Clc1ccc(C2NC(c3ccc(Cl)cc3)NC(c3ccc(Cl)cc3)N2)cc1 (stereo unspecified)"
  UNIT_STRING: "%"
  growth inhibition: 28.4
- MOLECULE: "O=Cc1ccc(OCCCOc2ccc([N+](=O)[O-])cc2)cc1"
  UNIT_STRING: "%"
  growth inhibition: -5.1
- MOLECULE: "CNc1ncnc2c1ncn2C"
  UNIT_STRING: "%"
  growth inhibition: 20.8
- MOLECULE: "O=C(O)c1cc(C(=O)O)cc(S(=O)(=O)N2CCOCC2)c1"
  UNIT_STRING: "%"
  growth inhibition: -2.1
- MOLECULE: "CNC(=O)c1ccccc1C"
  UNIT_STRING: "%"
  growth inhibition: -1.15
- MOLECULE: "Cc1coc2c1C1OC(=O)C3(C/C=C\\C(C)C2)OC13 (stereo unspecified)"
  UNIT_STRING: "%"
  growth inhibition: 0.15
- MOLECULE: "O=C(O)CCCc1ccc(N(CCO)CCO)cc1"
  UNIT_STRING: "%"
  growth inhibition: 5.3
- MOLECULE: "O=C(CC(O)(C(F)(F)F)C(F)(F)F)c1ccc(Cl)c([N+](=O)[O-])c1"
  UNIT_STRING: "%"
  growth inhibition: 97.2
- MOLECULE: "CC(=O)CCC(=O)C(=[N+]=[N-])S(=O)(=O)c1ccccc1"
  UNIT_STRING: "%"
  growth inhibition: -15.6
- MOLECULE: "C[C@@]1(CO)O[C@H]1CCC#C[Si](C)(C)C"
  UNIT_STRING: "%"
  growth inhibition: -20.9
- MOLECULE: "COc1ccc2c(-c3cc4ccccc4o3)cc(=O)oc2c1"
  UNIT_STRING: "%"
  growth inhibition: -6.4
- MOLECULE: "CC(C)C(O)C(C)(C)CO (stereo unspecified)"
  UNIT_STRING: "%"
  growth inhibition: 10.7
- MOLECULE: "O=c1[nH]c2cc(Cl)ccc2nc1/C(=N\\O)C(O)c1ccc(Cl)cc1Cl (stereo unspecified)"
  UNIT_STRING: "%"
  growth inhibition: -9.9
- MOLECULE: "COC(=O)[C@]1(C)CCC[C@@]2(C)C1CC[C@@]13C=C(C(C)C)[C@@H](CC1=O)CC23 (stereo partly specified)"
  UNIT_STRING: "%"
  growth inhibition: 10.7
- MOLECULE: "COC(=O)C(O)CC1=CC[C@@H]2CC=C[C@H]12 (stereo partly specified)"
  UNIT_STRING: "%"
  growth inhibition: 27.7
- MOLECULE: "C(CCc1nnc2c(n1)CCCC2)Cc1nnc2c(n1)CCCC2"
  UNIT_STRING: "%"
  growth inhibition: -7.6
- MOLECULE: "CCNC(=O)N(C)Cc1ccc(Cl)cc1"
  UNIT_STRING: "%"
  growth inhibition: -4
- MOLECULE: "c1cncc(Cc2nc3ccccc3[nH]2)c1"
  UNIT_STRING: "%"
  growth inhibition: -26.9
- MOLECULE: "CCC(=O)n1cc2ccc([N+](=O)[O-])cc2n1"
  UNIT_STRING: "%"
  growth inhibition: 1.35
